test: Haemolysis assay; type: cell-based; settings: human, % Human Whole Blood Haemolysis
Value Kind: hemolysis at 3 h, 50 µg mL-1 (%)
Just the number in %, nothing appended.

If you can, please state the reported hemolysis at 3 h, 50 µg mL-1 value of CCCCCCCCCC(=O)N[C@@H](Cc1c[nH]c2ccccc12)C(=O)N[C@H](CC(N)=O)C(=O)N[C@@H](CC(=O)O)C(=O)N[C@@H]1C(=O)NCC(=O)N[C@@H](CCCN)C(=O)N[C@@H](CC(=O)O)C(=O)N[C@H](C)C(=O)N[C@@H](CC(=O)O)C(=O)NCC(=O)N[C@H](CO)C(=O)N[C@@H]([C@H](C)CC(=O)O)C(=O)N[C@@H](CC(=O)c2ccccc2N)C(=O)O[C@@H]1C [Compound 4, Daptomycin] . 0.4

###

assay: In vivo pharmacokinetics in mice; conditions: male, CD1, plasma; mouse, SC 10 mg kg-1
Value Kind: Tmax (min)
Could you give me the number in min? Just the number is fine.

Give its Tmax value. Item: CN[C@H](CC(C)C)C(=O)N[C@H]1C(=O)N[C@@H](CC(N)=O)C(=O)N[C@H]2C(=O)N[C@H]3C(=O)N[C@H](C(=O)N[C@H](C(=O)O)c4cc(O)cc(O)c4-c4cc3ccc4O)[C@H](O)c3ccc(c(Cl)c3)Oc3cc2cc(c3O[C@@H]2O[C@H](CO)[C@@H](O)[C@H](O)[C@H]2O[C@H]2C[C@](C)(N)[C@H](O)[C@H](C)O2)Oc2ccc(cc2Cl)[C@H]1O [Compound 1, Vancomycin] 15

###

Assay: Haemolysis assay
Format: cell-based
Conditions: human, % Human Whole Blood Haemolysis
Protocol: Haemolytic activity was measured as previously described with slight modifications, [45]. Fresh human venal blood was collected from healthy volunteers and pretreated with the anticoagulant sodium citrate. […] After centrifugation of samples at 2500 rpm (700 × g) for 5 min, the release of haemoglobin was monitored by measuring the absorbance (A sample) of the supernatant at 540 nm using BMG Labtech PolarStar Omega multimode reader. […]
Value Kind: hemolysis at 3 h, 200 µg mL-1 (%)
Lab book: enter the figure in %, no units written.

Dear colleague, I am looking for the recorded hemolysis at 3 h, 200 µg mL-1 of the following molecule: CCCCCCCCCC(=O)N[C@@H](Cc1c[nH]c2ccccc12)C(=O)N[C@H](CC(N)=O)C(=O)N[C@@H](CC(=O)O)C(=O)N[C@@H]1C(=O)NCC(=O)N[C@@H](CCCN)C(=O)N[C@@H](CC(=O)O)C(=O)N[C@H](C)C(=O)N[C@@H](CC(=O)O)C(=O)NCC(=O)N[C@H](CO)C(=O)N[C@@H]([C@H](C)CC(=O)O)C(=O)N[C@@H](CC(=O)c2ccccc2N)C(=O)O[C@@H]1C [Compound 4, Daptomycin] 0.3

###

test: Haemolysis assay; type: cell-based; settings: human; 25 µg mL-1; read-out: % Human Whole Blood Haemolysis
Value Kind: hemolysis at 3 h, 25 µg mL-1
Respond with a number, then the unit of measure.

What hemolysis at 3 h, 25 µg mL-1 value was documented for this molecule, CN[C@H](CC(C)C)C(=O)N[C@H]1C(=O)N[C@@H](CC(N)=O)C(=O)N[C@H]2C(=O)N[C@H]3C(=O)N[C@H](C(=O)N[C@H](C(=O)O)c4cc(O)cc(O)c4-c4cc3ccc4O)[C@H](O)c3ccc(c(Cl)c3)Oc3cc2cc(c3O[C@@H]2O[C@H](CO)[C@@H](O)[C@H](O)[C@H]2O[C@H]2C[C@](C)(N)[C@H](O)[C@H](C)O2)Oc2ccc(cc2Cl)[C@H]1O [Compound 1, Vancomycin] ? 0.1%
